# Tested on: Plasmodium falciparum
# Assay Name: GSK_TCMDC: Inhibition of Plasmodium falciparum Dd2 in whole red blood cells, using parasite LDH activity as an index of growth. Test compounds present at 2uM
# Format: functional
Kindly apply the following: met if Inhibition is less than 70%, not met in every other case.

CN(c1ccc2c(c1)nc(Nc1cc(C(C)(C)C)on1)n2C)c1ccnc(Nc2ccc(CS(C)(=O)=O)cc2)n1    met
CC[C@@]1(O)C(=O)OCc2c1cc1n(c2=O)Cc2c-1nc1cc3c(cc1c2CN1CCN(C)CC1)OCCO3.Cl    not met

Does this molecule meet the criterion Inhibition < 70%? CCNc1cc(C(=O)N[C@@H](Cc2ccccc2)[C@H](O)CNCc2cccc(OC)c2C)cc(N2CCCCS2(=O)=O)c1.O=CO
not met

# check: Inhibition < 70% for O=C(Nc1ccccc1C(F)(F)F)Nc1nn(Cc2c(F)cccc2Cl)cc1Br
not met

Lab note: confirm whether the reported Inhibition for this molecule is below 70%, equality not counting. molecule: CO/C(=C\C=C\c1cc2cc(Cl)c(Cl)cc2[nH]1)C(=O)NCCCN(C)CCN(C)c1ccccc1
met

Decide: Inhibition of O=C(Nc1ccc(F)cc1)NC1CCN(c2ccnc3cc(Cl)ccc23)CC1.O=C(O)C(F)(F)F strictly below 70%?
met

Field: below-cutoff. Rule: recorded Inhibition strictly less than 70%. Subject: Cc1cc2c(NC(=O)NC3CCN(CCc4cccc(Cl)c4)CC3)cccc2cn1.Cl
met
